STUDY_TARGET: T1, cynomolgus monkey IL-33 expressed with a C-terminal hexahistidine tag (cynomolgus monkey)
T1 construct: also called MfIL-33-6His; Mf-IL-33-6His
T1 chain: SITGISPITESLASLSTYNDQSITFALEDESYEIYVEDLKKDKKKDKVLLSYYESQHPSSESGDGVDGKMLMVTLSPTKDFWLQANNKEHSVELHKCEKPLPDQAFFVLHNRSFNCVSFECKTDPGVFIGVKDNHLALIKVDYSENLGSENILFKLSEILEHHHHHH
METHOD: BLI; captured MfIL-33-6His, mAb-1 step with Isotype control
Procedure: Binding competition between a panel of different anti-IL-33 monoclonal antibodies was determined using a real time, label-free bio-layer interferometry assay on an Octet® HTX biosensor (ForteBio, A Division of Pall Life Sciences). […] The real-time binding response was monitored during the experiment, and the maximum binding response for each binding step was recorded. […]
PARAMETER_MEASURED: mAb-2 Binding to the Pre-complex of mAb-1 & MfIL-33-6xHis (nm)
One number for each entry, in nm.

Past entries and their recorded results:
Asked: Return reported mAb-2 Binding to the Pre-complex of mAb-1 & MfIL-33-6xHis. Input binder: H1M9566N (antibody, mouse IgG1, V domains shown, Human variable domains, mouse IgG1 Fc (H1M)) VH: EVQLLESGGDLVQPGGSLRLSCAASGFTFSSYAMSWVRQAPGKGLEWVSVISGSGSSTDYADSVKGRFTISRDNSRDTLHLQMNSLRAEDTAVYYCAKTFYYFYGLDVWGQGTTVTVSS VL: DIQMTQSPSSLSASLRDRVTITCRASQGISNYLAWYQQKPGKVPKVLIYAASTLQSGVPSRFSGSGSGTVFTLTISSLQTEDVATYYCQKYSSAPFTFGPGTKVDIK
Given back: 0.38

Asked: Quote mAb-2 Binding to the Pre-complex of mAb-1 & MfIL-33-6xHis reported for H1M9568N (antibody, mouse IgG1, V domains shown, Human variable domains, mouse IgG1 Fc (H1M)) VH: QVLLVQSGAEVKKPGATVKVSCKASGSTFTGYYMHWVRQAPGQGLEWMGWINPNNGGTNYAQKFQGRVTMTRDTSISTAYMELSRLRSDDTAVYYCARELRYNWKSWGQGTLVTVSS VL: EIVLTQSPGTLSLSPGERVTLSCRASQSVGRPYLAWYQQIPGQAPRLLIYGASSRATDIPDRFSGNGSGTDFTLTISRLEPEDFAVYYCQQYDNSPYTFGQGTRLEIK please.
Given back: 0.34

Asked: Identify measured mAb-2 Binding to the Pre-complex of mAb-1 & MfIL-33-6xHis associated with H1M9559N (antibody, mouse IgG1, V domains shown, Human variable domains, mouse IgG1 Fc (H1M)) VH: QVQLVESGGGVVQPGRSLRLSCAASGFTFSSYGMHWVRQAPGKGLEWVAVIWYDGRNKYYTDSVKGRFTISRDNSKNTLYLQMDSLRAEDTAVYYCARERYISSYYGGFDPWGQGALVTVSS VL: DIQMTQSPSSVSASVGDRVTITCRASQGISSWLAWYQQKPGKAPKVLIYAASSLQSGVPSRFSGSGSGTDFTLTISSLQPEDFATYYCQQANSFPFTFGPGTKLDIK
Given back: 0.21

Would you mind giving mAb-2 Binding to the Pre-complex of mAb-1 & MfIL-33-6xHis for every binder in the list below?
1. H4H9662P (antibody, V domains shown, Human IgG4 Fc (H4H)) VH: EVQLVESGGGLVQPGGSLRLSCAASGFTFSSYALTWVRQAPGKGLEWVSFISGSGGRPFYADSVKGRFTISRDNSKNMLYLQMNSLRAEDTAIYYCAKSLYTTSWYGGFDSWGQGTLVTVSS VL: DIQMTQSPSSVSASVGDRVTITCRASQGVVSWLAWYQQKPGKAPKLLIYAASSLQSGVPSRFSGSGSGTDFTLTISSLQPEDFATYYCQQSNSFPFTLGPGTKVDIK
2. H4H9640P (antibody, human IgG4, V domains shown, Human IgG4 Fc (H4H)) VH: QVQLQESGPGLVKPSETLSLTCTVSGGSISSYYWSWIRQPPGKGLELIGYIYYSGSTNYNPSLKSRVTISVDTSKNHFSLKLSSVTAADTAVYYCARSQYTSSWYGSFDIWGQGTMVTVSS VL: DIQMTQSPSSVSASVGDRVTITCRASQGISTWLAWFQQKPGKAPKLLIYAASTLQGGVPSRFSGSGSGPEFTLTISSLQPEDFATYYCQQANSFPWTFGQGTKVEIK

Given back:
[0.22, 0.28]
